Task for the reader: assign each of the following binders its reported IC50 (PRNT, authentic SARS-CoV-2).
target_system: Spike protein of authentic SARS-CoV-2 (Munich isolate 984) (SARS-CoV-2, UniProt P0DTC2 14-1273)
assay_method_text: cell-based or functional assay
One number for each entry, in µg/mL.

Completed entries (count: 4):
binder: HK CV38-221 (antibody, V domains shown) VH: EVQLVESGGGLVQPGGSLRLSCAASGITVSSNYMIWVRQAPGKGLEWVSVIYSGGSTYYADSVKGRFTISRDNSKNTLYLQMNSLRAEDTAVYYCARGFGDYYFDYWGQGTLVTVSS VL: EIVLTQSPGTLSLSPGERATLSCRASQSVSSSYFAWYQQKPGQAPRLLIYGASSRATGIPDRFSGSGSGTDFTLTISRLEPEDFAVYYCQQLYTFGQGTKLEIKR
unit_string: µg/mL
observed_value: 0.173
--
binder: HL CV07-270 (antibody, V domains shown) VH: QVQLVESGGGLVKPGGSLRLSCAASGFTFSDYYMTWIRQAPGKGLEWVSYISSSGSTIYYADSVKGRFTISRDNAKNSLYLQMNSLRAEDTAVYYCARARGSSGWYRIGTRWGNWFDPWGQGTLVTVSS VL: QSALTQPASVSGSPGQSITISCTGTSSDVGGYNYVSWYQQHPGKAPKLMIYEVSNRPSGVSNRFSGSKSGNTASLTISGLQAEDEADYYCSSYTSSSNVVFGGGTMLTVLG
unit_string: µg/mL
observed_value: 0.0823
--
binder: HK CV38-139 (antibody, V domains shown) VH: EVQLVESGGGLVQPGGSLRLSCAASGFTVSSNYMSWVRQAPGKGLEWVSVFYSGGSTFYADSVKGRFTISRDNSKNTLYLQMNSLRAEDTAVYYCARGHYDLFDYWGQGTLVTVSS VL: DIQLTQSPSFLSASVGDRVTITCRASQGISSYLAWYQQKPGKAPKLLIYAASTLQSGVPSRFSGSGSGTEFTLTISSLQPEDFATYYCQQLNSYPPGTFGPGTKVDIKR
unit_string: µg/mL
observed_value: 0.0732
--
binder: HL CV07-262 (antibody, V domains shown) VH: QVQLVQSGAEVKKPGASVKVSCKASGYTFTGYYMHWVRQAPGQGLEWMGWINPNSGGTNYAQTFQGRVTMTRDTSITTTYMELSRLRSDDTAVYYCARVGWYDFGTPGDYYYYYGMDVWGQGTTVTVSS VL: QSALTQPASVSGSPGQSITISCTGTSSDVGSYNLVSWYQQHPGKAPKLMIYEGSKRPSGVSNRFSGSKSGNTASLTISGLQAEDEADYFCCSYAGTSTFVFGTGTKVTVLG
unit_string: µg/mL
observed_value: 0.0071

Let us move to another entry and its IC50 (PRNT, authentic SARS-CoV-2).
INPUT: // IC50 (PRNT, authentic SARS-CoV-2) lookup, key: HL CV07-315 (antibody, V domains shown) VH: EVQLVESGGGLVQPGRSLRLSCAASGFTFDDYAMHWVRQAPGKGLEWVSGISWNSGSIGYADSVKGRFTISRDNAKNSLYLQMNSLRAEDTALYYCAKDFLWDLHPPRYYGMDVWGQGTTVTVSS VL: QSVLTRPPSVSAAPGQKVTISCSGSSSNIGNNYVSWYQQLPGTAPKLLIYENNKRPSGIPDRFSGSKSGTSATLGITGLQTGDEADYYCGTWDSSLNGVFGGGTKLTVLG
OUTPUT: 0.0249

The measured values listed here are drawn from patent US20240376180A1.
